System: Staphylococcus aureus
Assay: Antibacterial activity against Staphylococcus aureus ATCC 29213 incubated for 24 hrs by microtiter plate method
Format: functional
Conditions: Staphylococcus aureus, ATCC 29213, read-out: MIC
Square brackets hold non-standard residues; d marks the D form. Peptide text beside a SMILES is read from it. Bip = N[C@@H](Cc1ccc(-c2ccccc2)cc1)C(=O)O; Dip = N[C@H](C(=O)O)C(c1ccccc1)c1ccccc1; 2Nal = N[C@@H](Cc1ccc2ccccc2c1)C(=O)O
I'd appreciate it if you could supply MIC values for the items below.
One number for each entry, in µg/mL.

Past entries and their recorded results:
{"molecule": "N=C(N)NCCC[C@@H]1NC(=O)[C@H](CCCNC(=N)N)NC(=O)[C@H](CCCNC(=N)N)NC(=O)[C@H](Cc2ccc(-c3ccccc3)cc2)NC(=O)[C@H](Cc2ccc(-c3ccccc3)cc2)NC(=O)[C@H](Cc2ccc(-c3ccccc3)cc2)NC(=O)[C@H](Cc2ccc(-c3ccccc3)cc2)NC(=O)[C@H](CCCNC(=N)N)NC1=O (cyclo([Bip][Bip][Bip][Bip]RRRR))", "test_target": "Staphylococcus aureus", "reported_metric": "MIC", "observed_measurement": 50}
{"molecule": "N=C(N)NCCC[C@@H]1NC(=O)[C@H](CCCNC(=N)N)NC(=O)[C@H](CCCNC(=N)N)NC(=O)[C@H](Cc2ccc(-c3ccccc3)cc2)NC(=O)[C@H](Cc2ccc(-c3ccccc3)cc2)NC(=O)[C@H](Cc2ccc(-c3ccccc3)cc2)NC(=O)[C@H](CCCNC(=N)N)NC1=O (cyclo([Bip][Bip][Bip]RRRR))", "test_target": "Staphylococcus aureus", "reported_metric": "MIC", "observed_measurement": 3.1}
{"molecule": "N=C(N)NCCC[C@@H]1NC(=O)[C@H](CCCNC(=N)N)NC(=O)[C@H](CCCNC(=N)N)NC(=O)[C@H](Cc2ccc3ccccc3c2)NC(=O)[C@H](Cc2ccc3ccccc3c2)NC(=O)[C@H](Cc2ccc3ccccc3c2)NC(=O)[C@H](CCCNC(=N)N)NC(=O)[C@H](CCCNC(=N)N)NC1=O (cyclo([2Nal][2Nal][2Nal]RRRRR))", "test_target": "Staphylococcus aureus", "reported_metric": "MIC", "observed_measurement": 3.1}
{"molecule": "N=C(N)NCCC[C@@H]1NC(=O)[C@H](CCCNC(=N)N)NC(=O)[C@H](CCCNC(=N)N)NC(=O)[C@H](C(c2ccccc2)c2ccccc2)NC(=O)[C@H](C(c2ccccc2)c2ccccc2)NC(=O)[C@H](CCCNC(=N)N)NC1=O (cyclo([Dip][Dip]RRRR))", "test_target": "Staphylococcus aureus", "reported_metric": "MIC", "observed_measurement": 6.2}
{"molecule": "N=C(N)NCCC[C@H](NC(=O)[C@H](CCCNC(=N)N)NC(=O)[C@H](CCCNC(=N)N)NC(=O)[C@@H](N)CCCNC(=N)N)C(=O)N[C@@H](Cc1ccc2ccccc2c1)C(=O)N[C@@H](Cc1ccc2ccccc2c1)C(=O)O (H-RRRR[2Nal][2Nal]-OH)", "test_target": "Staphylococcus aureus", "reported_metric": "MIC", "observed_measurement": 6.2}
{"molecule": "N=C(N)NCCC[C@@H]1NC(=O)[C@H](CCCNC(=N)N)NC(=O)[C@H](C(c2ccccc2)c2ccccc2)NC(=O)[C@H](C(c2ccccc2)c2ccccc2)NC(=O)[C@H](CCCNC(=N)N)NC(=O)[C@H](CCCNC(=N)N)NC(=O)[C@H](C(c2ccccc2)c2ccccc2)NC1=O (stereo in doubt; 16C)", "test_target": "Staphylococcus aureus", "reported_metric": "MIC", "observed_measurement": 6.2}

Moving on to the next molecule.
What value of measured MIC is listed for N=C(N)NCCC[C@@H]1NC(=O)[C@H](CCCNC(=N)N)NC(=O)[C@H](CCCNC(=N)N)NC(=O)[C@H](C(c2ccccc2)c2ccccc2)NC(=O)[C@H](C(c2ccccc2)c2ccccc2)NC(=O)[C@H](C(c2ccccc2)c2ccccc2)NC(=O)[C@H](CCCNC(=N)N)NC1=O (cyclo(RRRR[Dip][Dip][Dip])) ?
3.1

###

Test system: Lipid bilayer
Assay: Membrano-lytic effect in mammalian membrane mimic DOPC/cholesterol (10:1) large unilamellar vesicles assessed as calcein leakage measured at 50 microg/ml measured upto 100 mins for every 10 mins by multimode microplate reader assay
Assay type: cell membranes
Conditions: dose 50.0 µg/ml
Square brackets hold non-standard residues; d marks the D form. Peptide text beside a SMILES is read from it. Dip = N[C@H](C(=O)O)C(c1ccccc1)c1ccccc1; 2Nal = N[C@@H](Cc1ccc2ccccc2c1)C(=O)O
reported_metric: Activity (%)
One number for each entry, in %.

{"compound": "N=C(N)NCCC[C@@H]1NC(=O)[C@H](CCCNC(=N)N)NC(=O)[C@H](CCCNC(=N)N)NC(=O)[C@H](C(c2ccccc2)c2ccccc2)NC(=O)[C@H](C(c2ccccc2)c2ccccc2)NC(=O)[C@H](C(c2ccccc2)c2ccccc2)NC(=O)[C@H](CCCNC(=N)N)NC1=O (cyclo(RRRR[Dip][Dip][Dip]))", "observed_measurement": 18}

Hi! What's the reported Activity for N=C(N)NCCC[C@H](NC(=O)[C@H](CCCNC(=N)N)NC(=O)[C@H](CCCNC(=N)N)NC(=O)[C@@H](N)CCCNC(=N)N)C(=O)N[C@@H](Cc1ccc2ccccc2c1)C(=O)N[C@@H](Cc1ccc2ccccc2c1)C(=O)N[C@@H](Cc1ccc2ccccc2c1)C(=O)O (H-RRRR[2Nal][2Nal][2Nal]-OH) on Lipid bilayer?
6

###

System: Cell membrane
Test: Membrano-lytic effect in cytoplasmic membrane of Escherichia coli ATCC BAA-2452 assessed as disruption by measuring propidium iodide fluorescence incubated for 1 hr by FACscan flow cytometer analysis
Conditions: DDE = dose-dependent effect
Square brackets hold non-standard residues; d marks the D form. Peptide text beside a SMILES is read from it. Dip = N[C@H](C(=O)O)C(c1ccccc1)c1ccccc1; 2Nal = N[C@@H](Cc1ccc2ccccc2c1)C(=O)O

{"molecule": "N=C(N)NCCC[C@@H]1NC(=O)[C@H](CCCNC(=N)N)NC(=O)[C@H](CCCNC(=N)N)NC(=O)[C@H](C(c2ccccc2)c2ccccc2)NC(=O)[C@H](C(c2ccccc2)c2ccccc2)NC(=O)[C@H](C(c2ccccc2)c2ccccc2)NC(=O)[C@H](CCCNC(=N)N)NC1=O (cyclo(RRRR[Dip][Dip][Dip]))", "Activity": "Dde"}
{"molecule": "N=C(N)NCCC[C@@H]1NC(=O)[C@H](CCCNC(=N)N)NC(=O)[C@H](CCCNC(=N)N)NC(=O)[C@H](Cc2ccc3ccccc3c2)NC(=O)[C@H](Cc2ccc3ccccc3c2)NC(=O)[C@H](Cc2ccc3ccccc3c2)NC(=O)[C@H](CCCNC(=N)N)NC1=O (cyclo(RRRR[2Nal][2Nal][2Nal]))", "Activity": "Dde"}
{"molecule": "N=C(N)NCCC[C@H](NC(=O)[C@H](CCCNC(=N)N)NC(=O)[C@H](CCCNC(=N)N)NC(=O)[C@@H](N)CCCNC(=N)N)C(=O)N[C@@H](Cc1ccc2ccccc2c1)C(=O)N[C@@H](Cc1ccc2ccccc2c1)C(=O)N[C@@H](Cc1ccc2ccccc2c1)C(=O)O (H-RRRR[2Nal][2Nal][2Nal]-OH)", "Activity": "Dde"}
{"molecule": "N=C(N)NCCC[C@H](NC(=O)[C@H](CCCNC(=N)N)NC(=O)[C@@H](N)CCCNC(=N)N)C(=O)N[C@@H](CCCNC(=N)N)C(=O)N[C@H](C(=O)N[C@H](C(=O)N[C@H](C(=O)O)C(c1ccccc1)c1ccccc1)C(c1ccccc1)c1ccccc1)C(c1ccccc1)c1ccccc1 (H-RRRR[Dip][Dip][Dip]-OH)", "Activity": "Dde"}

###

Assay: Hemolytic activity in human RBC assessed as hemolysis incubated for 2 hrs by spectrophotometer analysis
Assay type: toxicity, cell-based, Erythrocyte
Conditions: human red blood cells (erythrocytes)
Square brackets hold non-standard residues; d marks the D form. Peptide text beside a SMILES is read from it. Dip = N[C@H](C(=O)O)C(c1ccccc1)c1ccccc1; 2Nal = N[C@@H](Cc1ccc2ccccc2c1)C(=O)O
Mark each entry Y if its HC50 at 2 h sits below 100 µg/mL, and N for all others.

{"compound": "N=C(N)NCCC[C@H](NC(=O)[C@H](CCCNC(=N)N)NC(=O)[C@@H](N)CCCNC(=N)N)C(=O)N[C@@H](CCCNC(=N)N)C(=O)N[C@H](C(=O)N[C@H](C(=O)O)C(c1ccccc1)c1ccccc1)C(c1ccccc1)c1ccccc1 (H-RRRR[Dip][Dip]-OH)", "assigned_class": "N"}

Confirm or reject: HC50 at 2 h of N=C(N)NCCC[C@@H]1NC(=O)[C@H](CCCNC(=N)N)NC(=O)[C@H](CCCNC(=N)N)NC(=O)[C@H](C(c2ccccc2)c2ccccc2)NC(=O)[C@H](C(c2ccccc2)c2ccccc2)NC(=O)[C@H](CCCNC(=N)N)NC1=O (cyclo([Dip][Dip]RRRR)) lies strictly below 100 µg/mL
N

hey, is HC50 at 2 h for N=C(N)NCCC[C@@H]1NC(=O)[C@H](CCCNC(=N)N)NC(=O)[C@H](C(c2ccccc2)c2ccccc2)NC(=O)[C@H](C(c2ccccc2)c2ccccc2)NC(=O)[C@H](CCCNC(=N)N)NC(=O)[C@H](CCCNC(=N)N)NC(=O)[C@H](C(c2ccccc2)c2ccccc2)NC1=O (stereo in doubt; 16C) lower than 100 µg/mL or not?
N

Regarding N=C(N)NCCC[C@H](NC(=O)[C@H](CCCNC(=N)N)NC(=O)[C@H](CCCNC(=N)N)NC(=O)[C@H](CCCNC(=N)N)NC(=O)[C@@H](N)CCCNC(=N)N)C(=O)N[C@@H](Cc1ccc2ccccc2c1)C(=O)N[C@@H](Cc1ccc2ccccc2c1)C(=O)N[C@@H](Cc1ccc2ccccc2c1)C(=O)O (H-RRRRR[2Nal][2Nal][2Nal]-OH) , kindly confirm whether its HC50 at 2 h is beneath 100 µg/mL.
N

Identify whether the compound N=C(N)NCCC[C@H](NC(=O)[C@H](CCCNC(=N)N)NC(=O)[C@H](Cc1ccc2ccccc2c1)NC(=O)[C@H](Cc1ccc2ccccc2c1)NC(=O)[C@H](CCCNC(=N)N)NC(=O)[C@@H](N)CCCNC(=N)N)C(=O)N[C@@H](Cc1ccc2ccccc2c1)C(=O)O (H-RR[2Nal][2Nal]RR[2Nal]-OH) records HC50 at 2 h below 100 µg/mL.
N

In plain terms, does N=C(N)NCCC[C@H](NC(=O)[C@H](CCCNC(=N)N)NC(=O)[C@H](CCCNC(=N)N)NC(=O)[C@@H](N)CCCNC(=N)N)C(=O)N[C@@H](Cc1ccc2ccccc2c1)C(=O)N[C@@H](Cc1ccc2ccccc2c1)C(=O)N[C@@H](Cc1ccc2ccccc2c1)C(=O)N[C@@H](Cc1ccc2ccccc2c1)C(=O)O (H-RRRR[2Nal][2Nal][2Nal][2Nal]-OH) come in under 100 µg/mL for HC50 at 2 h?
Y

Consider N=C(N)NCCC[C@H](NC(=O)[C@H](CCCNC(=N)N)NC(=O)[C@H](CCCNC(=N)N)NC(=O)[C@@H](N)CCCNC(=N)N)C(=O)N[C@@H](Cc1ccc2ccccc2c1)C(=O)N[C@@H](Cc1ccc2ccccc2c1)C(=O)O (H-RRRR[2Nal][2Nal]-OH) . Does its HC50 at 2 h lie strictly below 100 µg/mL?
N

Given N=C(N)NCCC[C@@H]1NC(=O)[C@H](CCCNC(=N)N)NC(=O)[C@H](CCCNC(=N)N)NC(=O)[C@H](Cc2ccc3ccccc3c2)NC(=O)[C@H](Cc2ccc3ccccc3c2)NC(=O)[C@H](Cc2ccc3ccccc3c2)NC(=O)[C@H](Cc2ccc3ccccc3c2)NC(=O)[C@H](CCCNC(=N)N)NC1=O (cyclo([2Nal][2Nal][2Nal][2Nal]RRRR)) , is recorded HC50 at 2 h strictly lower than 100 µg/mL?
Y

Lab log: compare recorded HC50 at 2 h with 100 µg/mL; is it strictly lower for N=C(N)NCCC[C@@H]1NC(=O)[C@H](CCCNC(=N)N)NC(=O)[C@H](CCCNC(=N)N)NC(=O)[C@H](C(c2ccccc2)c2ccccc2)NC(=O)[C@H](C(c2ccccc2)c2ccccc2)NC(=O)[C@H](C(c2ccccc2)c2ccccc2)NC(=O)[C@H](C(c2ccccc2)c2ccccc2)NC(=O)[C@H](CCCNC(=N)N)NC1=O (cyclo([Dip][Dip][Dip][Dip]RRRR)) ?
Y

Find out if reported HC50 at 2 h for N=C(N)NCCC[C@@H]1NC(=O)[C@H](CCCNC(=N)N)NC(=O)[C@H](CCCNC(=N)N)NC(=O)[C@H](Cc2ccc3ccccc3c2)NC(=O)[C@H](Cc2ccc3ccccc3c2)NC(=O)[C@H](CCCNC(=N)N)NC1=O (cyclo([2Nal][2Nal]RRRR)) is less than 100 µg/mL
N
